Read-out: Tumor necrosis factor (Homo sapiens)
measurement notes: BSK_LPS_TNFa: BioMAP Diversity Plus: LPS Assay for Tumour Necrosis Factor alpha (TNFa) Biomarker Activity (AID 2283085)
condition parameters: primary human HUVEC with PBMC; actives raise or lower the signal
Activity calls are given as the source filed them. Rule for the calls: active = hit-call score of the fitted dose curve at least 0.9, where 1 is the maximum; inactive = score below 0.9.
Lab note: assign the record to one of active, inactive

# molecule, assigned category
data = [
    ("CCNc1nc(NC(C)(C)C)nc(SC)n1", "inactive"),
    ("COP(=S)(OC)Oc1c(Cl)cc(C)cc1Cl", "inactive"),
    ("CC(C)(OO)c1ccccc1", "inactive"),
]

We next turn to a different molecule, shown below.
Q) What classification did CCOC(=O)/C=C(C)/C=C/C[C@@H](C)CCCC(C)C end up with in this test?
A) active

----------
measurement notes: ATG_Oct_MLP_CIS: Attagene CIS-FACTORIAL HepG2 Assay for human Octamer-Binding Transcription Factor (Oct) (AID 2282993)
condition parameters: HepG2 Attagene cis-factorial Oct reporter, mRNA; actives raise or lower the signal
The source made the active and inactive calls. How the source made its calls: active means hit-call score of the fitted dose curve at least 0.9, where 1 is the maximum; inactive means score below 0.9.
Lab note: assign the record to one of T (active), F (inactive)

Use the examples below as a reference point.
# smiles string, assigned category
data = [
    ("C[C@H]1O[C@@H](O[C@H]2[C@@H](O)C[C@H](O[C@H]3[C@@H](O)C[C@H](O[C@H]4CC[C@@]5(C)[C@H](CC[C@@H]6[C@@H]5CC[C@]5(C)[C@@H](C7=CC(=O)OC7)CC[C@]65O)C4)O[C@@H]3C)O[C@@H]2C)C[C@H](O)[C@@H]1O", "T"),
    ("ClC(Cl)=C(Cl)C(Cl)=C(Cl)Cl", "T"),
    ("ClC1=C(Cl)[C@]2(Cl)[C@H]3[C@H]([C@H]4C=C[C@H]3C4)[C@@]1(Cl)C2(Cl)Cl", "F"),
]

Q) What classification did O=C(OC1CCCCC1)c1ccccc1C(=O)OC1CCCCC1 end up with in this test?
A) F

Q) What classification did CN(C)N=O end up with in this test?
A) F

Q) What classification did CC(C)(OO)c1ccccc1 end up with in this test?
A) F

----------
system: mouse Estrogen Receptor alpha (Era), Esr1 (gene 13982)
measurement notes: NVS_NR_mERa: NovaScreen (NVS) Nuclear Receptor Binding Assay for mouse Estrogen Receptor alpha (Era) (AID 2283378);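 note: hit means loss of bound radioligand signal relative to DMSO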
Results filed as inconclusive are left out. Calls of active or inactive are those of the source. How the source made its calls: active means hit-call score of the fitted dose curve at least 0.9, where 1 is the maximum; inconclusive means response in the unintended direction; inactive means score below 0.9.
Lab note: assign the record to one of class 1 (active), class 0 (inactive)

# compound, assigned category
rows = [
    ("CCC[CH2][Sn]([CH2]CCC)([CH2]CCC)[O]C(=O)c1ccccc1", "class 0"),
    ("CC1(C)CCC(Cc2ccc(Cl)cc2)C1(O)Cn1cncn1 (stereo not given)", "class 0"),
    ("O=C1CCCN1", "class 0"),
    ("CCOP(=S)(OCC)Oc1nc(Cl)c(Cl)cc1Cl", "class 0"),
]

Q) What classification did Oc1ccc(-c2ccccc2)cc1 end up with in this test?
A) class 1

----------
measurement notes: ATG_EGR_CIS: Attagene CIS-FACTORIAL HepG2 Assay for human Early Growth Response 1 (EGR1) (AID 2282938)
condition parameters: HepG2 Attagene CIS-FACTORIAL EGR reporter mRNA; actives raise or lower the signal
Protocol: ATG_CIS is a cell-based, multiplexed-readout assay that uses HepG2, a human liver cell line, with measurements taken at 24 hours after chemical dosing in a 24-well plate.ATG_EGR_CIS is one of 52 assay component(s) measured or calculated from the ATG_CIS assay. […] This assay endpoint, ATG_EGR_CIS, was analyzed with bidirectional fitting relative to DMSO as the negative control and baseline of activity. […]
Calls of active or inactive are those of the source. Rule for the calls: active = hit-call score of the fitted dose curve at least 0.9, where 1 is the maximum; inactive = score below 0.9.
Lab note: assign the record to one of active, inactive

Use the examples below as a reference point.
# compound, assigned category
measured = [
    ("C=C(C)C#N", "inactive"),
    ("C=CC(=O)N(C)C", "inactive"),
    ("O=[N+]([O-])c1c(Cl)c(Cl)cc(Cl)c1Cl", "inactive"),
]

Q) What classification did COc1cc(OC)nc(NC(=O)NS(=O)(=O)c2ncccc2C(=O)N(C)C)n1 end up with in this test?
A) inactive

Q) What classification did CC(=O)C(Cl)C(=O)N(C)C (stereo unspecified) end up with in this test?
A) inactive

Q) What classification did ClCc1cccnc1 end up with in this test?
A) active

Q) What classification did CCOP(=S)(OCC)SCCS(=O)(=O)CC end up with in this test?
A) inactive

Q) What classification did O=[N+]([O-])c1ccc2c3c(cccc13)CC2 end up with in this test?
A) inactive
